Experiment: yeast AGP1-GFP level changes, GLN3 branch – cell-based, multiplex flow cytometry, S. cerevisiae, primary screen (AID 1887);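 note: AGP1-GFP fusion strain of S. cerevisiae within a five-strain barcoded multiplex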
Conditions: 3 h, at 10 µM, hits give high values
Results filed as inconclusive are left out.
Please provide measured GFP response, % of DMSO for the entries that follow.
Give a bare numeral; the unit % is implied.

Problem: Consider the molecule O=C(NC(Nc1ccccn1)C(Cl)(Cl)Cl)c1ccccc1 (configuration not stated) and give its recorded GFP response, % of DMSO.
Result: 102

Problem: Using the record for Cc1cc(-c2nn(-c3ccccc3F)cc2CN2CCCC(O)C2)c(C)s1 (configuration not stated) , state its measured GFP response, % of DMSO.
Result: 107

Problem: Could you please provide reported GFP response, % of DMSO for `CCCc1cc(=O)[nH]c(=S)[nH]1` ? Thanks!
Result: 107

Problem: For the molecule `CCn1c(/C=C/c2ccccc2)nc2ccccc2c1=O` , give its reported GFP response, % of DMSO.
Result: 92.6

Problem: Supply measured GFP response, % of DMSO of `Cc1ccc2c(c1)c(C)cc(=O)n2CCC(=O)O` in your reply.
Result: 102

Problem: # return recorded GFP response, % of DMSO for entry Cc1ccccc1NC(=O)C1(C)Cc2ccccc2C(=O)O1 (configuration not stated)
Result: 101

Problem: Given O=C(O)CCCN1C(=O)NC2NC(=O)NC21 (configuration not stated) , respond with its GFP response, % of DMSO.
Result: 97.5

Problem: Identify the reported GFP response, % of DMSO for the following entry. `COc1ccc2[nH]c(=O)c(CN(C(=O)c3ccco3)C(C)C)cc2c1`
Result: 92.6

Problem: Name the recorded GFP response, % of DMSO of the item `CC1(C)CC(=O)c2cn3c(nc2C1)nc1ccccc13` in your answer.
Result: 102

Problem: Entry `Nc1nnc(CSCc2ccc(Cl)cc2Cl)s1` needs its GFP response, % of DMSO filled in; supply it.
Result: 105

Problem: Dear colleague, please send me the reported GFP response, % of DMSO for COCC1CCCN(Cc2cn[nH]c2-c2cc3ccccc3o2)C1 (configuration not stated) when you can.
Result: 102

Problem: Tell us which GFP response, % of DMSO value is on record for CC1(C)CC(C(CC(=O)O)c2ccccc2)CCO1 (configuration not stated)
Result: 102

----------
Test system: anti-desmoglein-3 scFv antibody binding to human DSG3
Test: blockers of pathogenic pemphigus antibody–desmoglein-3 binding – biochemical, validation compound set, bead-based, flow cytometry, pilot screen (AID 588368);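 note: signal is the median channel fluorescence of bead-bound GFP antibody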
Settings: Protein G beads, DSG3-Fc, scFv-GFP binding, at 10 µM, hits give low values
What binding (% of control) was measured for each of the following?
// return numeric value only (unit: %, not printed)

Problem: Identify measured binding (% of control) corresponding to `S=C(NCCOCCOCCNC(=S)Nc1ccccc1)Nc1ccccc1`
Result: 99.9

Problem: // Input: `O=C(O)c1ccc(OCCn2ccnc2)cc1` . Output its binding (% of control) only.
Result: 101

Problem: State, in one line, measured binding (% of control) of COc1ccc(CCN2C(=O)CSC2c2ccc(OC)c(OC)c2)cc1OC (configuration not stated)
Result: 100

Problem: Entry `NC[C@H]1O[C@H](O[C@H]2[C@H](O)[C@@H](O[C@H]3O[C@H](CO)[C@@H](O)[C@H](N)[C@H]3O)[C@H](N)C[C@@H]2N)[C@H](N)C[C@@H]1O` needs its binding (% of control) filled in; supply it.
Result: 109

Problem: Provide only the value of recorded binding (% of control) for `COc1ccc(C2C3=C(CC(C)(C)CC3=O)N(C)C3=C2C(=O)CC(C)(C)C3)cc1`
Result: 100

Problem: Provide measured binding (% of control) value, entry: COC(=O)C1=C(C)NC(C)=C([N+](=O)[O-])C1c1ccccc1C(F)(F)F (configuration not stated)
Result: 106

Problem: State, in one line, measured binding (% of control) of CC1(C#CC[N+]2(C)CCCCC2)CCC2C(O1)c1ccccc1OC2(C)C (configuration not stated)
Result: 101

Problem: Tell me measured binding (% of control) for `COc1cc(OC)cc(C(C)=O)c1` please.
Result: 81.3

Problem: State its binding (% of control) for this molecule: `O=C(c1cc2cc(Br)ccc2o1)N1CCCC1`
Result: 103

Problem: Respond only with binding (% of control) recorded for `NC(=O)c1ncn([C@@H]2O[C@H](CO)[C@@H](O)[C@H]2O)c1O`
Result: 98.7

Problem: Please indicate binding (% of control) recorded for `CC1(C)Cc2ccccc2-c2nc(-c3ccccc3)oc(=O)c21`
Result: 98.8

Problem: Identify measured binding (% of control) associated with `Cc1cccc(-n2c(Cc3ccccc3)n[nH]c2=S)c1`
Result: 95.5

Problem: Report binding (% of control), nothing else, for this molecule: `CC(C)(Sc1cc(C(C)(C)C)c(O)c(C(C)(C)C)c1)Sc1cc(C(C)(C)C)c(O)c(C(C)(C)C)c1`
Result: 102

Problem: Name the recorded binding (% of control) of the molecule listed here: `O=C(/C=C/c1ccccc1)NC(=O)c1ccccc1O`
Result: 102

Problem: Answer with reported binding (% of control) of `CCc1c(C(C)=O)oc2ccc3c(C)cc(=O)oc3c12`
Result: 99

Problem: Tell me its binding (% of control) given `CSCC[C@H](NC(=O)NC1CCCC1)C(=O)O` as the entry.
Result: 101

Problem: Write down binding (% of control) measured for item `CC(C)CCn1c(N2CCc3ccccc3C2)nc2c1c(=O)[nH]c(=O)n2C`
Result: 104

Problem: State, in one line, measured binding (% of control) of `Cc1ccccc1-c1nn(-c2ccc(F)cc2F)cc1CNCCN(C)C`
Result: 103

Problem: Entry `Cc1nc(N)sc1C(=O)N/N=C/c1ccco1` needs its binding (% of control) filled in; supply it.
Result: 105

Problem: Read the entry CC(CCc1ccccc1)NC(=O)/C=C/c1ccccc1 (configuration not stated) and write its reported binding (% of control).
Result: 103

Problem: For the molecule `Cc1ccc(C(=O)Nc2ccc(O)cc2C(=O)O)cc1C` , report binding (% of control).
Result: 106

Problem: Provide only the value of recorded binding (% of control) for `COc1cccc(-n2cc(CNCc3c(C(=O)N(C)C)nc4ccc(Cl)cn34)cn2)c1`
Result: 98

----------
Assay: rapamycin-like changes in RPL19A-GFP expression – cell-based, S. cerevisiae, multiplex flow cytometry, primary screen (AID 1862);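 note: lower values mimic rapamycin by blocking the RPL19A rise seen in DMSO cells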
Details: S. cerevisiae RPL19A-GFP strain, flow cytometry fluorescence, 3 h; at 10 µM; hits give low values
Inconclusive results are not listed. Calls of active or inactive are those of the source. No stated cut-off is given here; in the data, active means percent of DMSO control GFP below about 86%; inactive means the rest, inconclusive results apart.
METRIC NAME: percent of DMSO control GFP

Problem: State its percent of DMSO control GFP: CC[C@]1(O)CC2CN(CCc3c([nH]c4ccccc34)[C@@](C(=O)OC)(c3cc4c(cc3OC)N(C=O)[C@H]3[C@@](O)(C(=O)OC)[C@H](OC(C)=O)[C@]5(CC)C=CCN6CC[C@]43[C@@H]65)C2)C1 (some centres undefined)
Result: 103% (inactive)

Problem: Return percent of DMSO control GFP (reported value) for this molecule: CCC1CCc2c(sc(NC(=O)c3cccnc3)c2C(N)=O)C1 (centres undefined)
Result: 97.6% (inactive)

Problem: Give me measured percent of DMSO control GFP, please, for this molecule: Cc1ccc(C2CC(=O)C(C=NCCN3CCN(CC(=O)Nc4cc(C)cc(C)c4)CC3)=C(O)C2)cc1 (centres undefined)
Result: 103% (inactive)

Problem: Look up and state reported percent of DMSO control GFP for `O=C1CN(O)C=C2N=c3ccccc3=C2N1c1ccc([N+](=O)[O-])cc1`
Result: 106% (inactive)

Problem: Complete the entry with percent of DMSO control GFP for `O=C(NCCO)c1ccc2[nH]c3ccccc3c2c1`
Result: 98.4% (inactive)

Problem: Return value of percent of DMSO control GFP for input `Cc1ccc(Cl)c(OCCCN(C)Cc2ccccc2)c1` , no commentary.
Result: 100% (inactive)

Problem: Report percent of DMSO control GFP, nothing else, for this molecule: `O=C(Oc1ccc2c3c(c(=O)oc2c1)CCCC3)c1ccco1`
Result: 101% (inactive)

Problem: Give percent of DMSO control GFP for the following molecule: CC(C)CN1CCN(Cc2ccc3ncccc3c2)CC1CCO (centres undefined)
Result: 103% (inactive)

Problem: Give the reported value of percent of DMSO control GFP for this record: `O=C(O)CCNC(=O)c1ccccc1`
Result: 90% (inactive)

Problem: Give the reported percent of DMSO control GFP for this molecule. CC(C)C12CN3CC(C(C)C)(CN(C1)C3c1ccccc1)C2O (centres undefined)
Result: 98.9% (inactive)

Problem: Note percent of DMSO control GFP for the molecule shown: `Cc1ccc(OCCCCn2ccnc2C)c(C)c1`
Result: 97.3% (inactive)

Problem: Please report the measured percent of DMSO control GFP for `COc1ccc(/C=C(/C#N)c2cccnc2)cc1OC`
Result: 101% (inactive)

Problem: Return percent of DMSO control GFP (reported value) for this molecule: CC(C)OC(=O)C1C(=O)CC(C)(O)C(C(=O)OC(C)C)C1c1cccc(O)c1 (centres undefined)
Result: 105% (inactive)

Problem: Given COc1ccc(C2C3CCCCC3(O)CCN2C(=O)c2cccs2)cc1 (centres undefined) , respond with its percent of DMSO control GFP.
Result: 102% (inactive)

Problem: Give percent of DMSO control GFP for the following molecule: `CN1C(C(=O)Nc2ccccn2)=C(O)c2ccccc2S1(=O)=O`
Result: 101% (inactive)

Problem: Indicate its recorded percent of DMSO control GFP; the molecule in question is `COC(=O)c1cc(OC)c(OC)cc1NC(=O)CN1C(=O)c2ccccc2C1=O`
Result: 97.1% (inactive)

Problem: Identify measured percent of DMSO control GFP associated with `COC1CCN(C(=O)c2ccc(OC3CCN(Cc4ccccn4)CC3)cc2)CC1`
Result: 104% (inactive)

Problem: Write down percent of DMSO control GFP measured for item `CC(=O)[C@H]1CC[C@H]2[C@@H]3CCC4=CC(=O)CC[C@]4(C)[C@H]3CC[C@]12C`
Result: 100% (inactive)

Problem: For the molecule `CN1CCN(CCCN2c3ccccc3Sc3ccc(Cl)cc32)CC1` , report percent of DMSO control GFP.
Result: 99.3% (inactive)

Problem: Specify reported percent of DMSO control GFP for the molecule shown: `CCOC(=O)c1cccc(P(C)(C)=O)c1`
Result: 103% (inactive)

Problem: Supply reported percent of DMSO control GFP belonging to this molecule: `CCN(CC)CCNC(=O)c1ccc(NC(C)=O)cc1`
Result: 99.4% (inactive)

Problem: For the molecule `O=C(/C=C/c1ccccc1)c1ccccc1` , give its reported percent of DMSO control GFP.
Result: 92.8% (inactive)

Problem: Please supply the value of reported percent of DMSO control GFP for the item `O=C(O)CCCNc1ccc(S(=O)(=O)Nc2ccccc2C(=O)O)cc1C(=O)O`
Result: 105% (inactive)

Problem: Quick one: give measured percent of DMSO control GFP for `O=c1c(C(c2ccccc2)c2c(O)sc3ccccc3c2=O)c(O)sc2ccccc12`
Result: 93.8% (inactive)

Problem: Give reported percent of DMSO control GFP value for Cc1ccc(S(=O)(=O)NC(C(=O)Oc2ccc3c(C(F)(F)F)cc(=O)oc3c2)c2ccccc2)cc1 (centres undefined)
Result: 98.1% (inactive)

Problem: Check the records and state percent of DMSO control GFP for `CC(C)NS(=O)(=O)c1ccc(OCC(=O)Nc2cccc(F)c2)cc1`
Result: 101% (inactive)

Problem: Output percent of DMSO control GFP of `c1ccc(Nc2cccc3c(Nc4ccccc4)cccc23)cc1`
Result: 104% (inactive)

Problem: Give the reported percent of DMSO control GFP for this molecule. `CC(C)c1ccc(OCc2ccc(C(=O)O)o2)cc1`
Result: 105% (inactive)

Problem: Supply recorded percent of DMSO control GFP for `S=C(NCc1ccccc1)NCc1cccc(CNC(=S)NCc2ccccc2)c1` here.
Result: 105% (inactive)

Problem: Specify percent of DMSO control GFP for `CCCCCC(=O)O[C@]1(C(C)=O)CC[C@H]2[C@@H]3CCC4=CC(=O)CC[C@]4(C)[C@H]3CC[C@@]21C` and stop.
Result: 98.9% (inactive)

Problem: State its percent of DMSO control GFP for this molecule: `COc1ccc2cc(C(=O)OC(C)C)sc(=O)c2c1OC`
Result: 106% (inactive)

Problem: Give the reported percent of DMSO control GFP for this molecule. `Cc1cc(O)c(C(C)C)cc1C1(c2cc(C(C)C)c(O)cc2C)OC(=O)c2ccccc21`
Result: 104% (inactive)

Problem: Quick one: give measured percent of DMSO control GFP for CC(=O)OC(CC(=O)O)C[N+](C)(C)C (centres undefined)
Result: 100% (inactive)

Problem: Provide measured percent of DMSO control GFP value, entry: `Cc1ccnc(NS(=O)(=O)c2ccc(N)cc2)n1`
Result: 102% (inactive)

Problem: For the molecule `COc1c(C=O)c(CCN(C)C(=O)c2ccc(F)cc2)cc2c1OCO2` , give its reported percent of DMSO control GFP.
Result: 103% (inactive)

Problem: Please give measured percent of DMSO control GFP of the following entry: `O=C(NCCc1c[nH]c2ccccc12)c1cccnc1`
Result: 101% (inactive)

Problem: Read the entry CC12CCCCN1CCCc1c2[nH]c2ccccc12 (centres undefined) and write its reported percent of DMSO control GFP.
Result: 99.6% (inactive)

Problem: Given the molecule `COC1CCN(Cc2cn(Cc3ccccc3)nc2-c2cc3ccccc3o2)CC1` , write its reported percent of DMSO control GFP.
Result: 105% (inactive)

Problem: Fill in percent of DMSO control GFP for record `O=C1C(=O)c2ccccc2C(O)=C1c1ccccc1F`
Result: 111% (inactive)

Problem: For the molecule `Cc1nonc1CN(C)C(=O)c1ccc(OC2CCN(C(=O)c3cccnc3)CC2)cc1` , give its measured percent of DMSO control GFP value.
Result: 103% (inactive)

Problem: Kindly indicate its recorded percent of DMSO control GFP. Item: `CSc1cccc(NC(=O)/C=C/c2ccccc2)c1`
Result: 91.3% (inactive)

Problem: Query percent of DMSO control GFP for `NC(N)=NC(N)=Nc1ccc2ccccc2c1`
Result: 102% (inactive)

Problem: Respond only with percent of DMSO control GFP recorded for O=C(OCC(O)C(O)COC(=O)c1ccccc1)c1ccccc1 (centres undefined)
Result: 102% (inactive)

Problem: Consider the molecule `O=C(CCCN1C(=O)/C(=C\c2cccc(Br)c2)SC1=S)Nc1cccnc1` and give its recorded percent of DMSO control GFP.
Result: 94.2% (inactive)
